Experiment: Tmax in Beagle dog at 10 mg/kg, po administered via gavage by HPLC-MS/MS analysis
Format: ADME, organism-based, Canis lupus familiaris
Settings: in vivo
measurement_kind: Tmax (min)
Give just the number in min; leave the unit off.

Asked: Could you please provide reported Tmax for "N[C@H](CO)c1cccc(-c2cccc(COc3ccccc3CC(=O)O)c2)c1" ? Thanks!
Given back: 48

----------
Experiment: AUClast in Beagle dog at 10 mg/kg, po administered via gavage by HPLC-MS/MS analysis
Format: ADME, organism-based, Canis lupus familiaris
Parameters: dose 10 mg/kg, time 0 - last, route oral
Conditions: in vivo
measurement_kind: AUC(0-t) (µM·h)
Give just the number in µM·h; leave the unit off.

Asked: Could you please provide reported AUC(0-t) for "N[C@H](CO)c1cccc(-c2cccc(COc3ccccc3CC(=O)O)c2)c1" ? Thanks!
Given back: 85
